- Tested on: 188146-221-R-J1-PDC complex spheroid viability;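 note: spheroids exposed to compounds for seven days; 100% = DMSO vehicle control viability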
- Assay notes: Anticancer human tumor 188146-221-R-J1-PDC patient-derived colon adenocarcinoma cell line growth inhibition [POLQ]
- Measurement conditions: second compound 0.316 µM; first compound 3.16 µM; hits give low values
- Description: Multicellular complex tumor spheroid response to Polymerase (POL) inhibitors (novobiocin, ART-558, RP6685) in combination with a variety of drugs and investigational agents in selected tumor cell lines The POL inhibitors (novobiocin, ART-558, and RP6685) were evaluated both individually and in combination with standard of care and investigational anticancer small molecules within a complex spheroid model of solid tumors. . […]
Attribute measured: viability, T/C (%)
Numbers only, in %.

Below, 4 compounds whose answers are already recorded.
[
  {
    "Compound": "O=c1[nH]cc(F)c(=O)[nH]1 + COC1C(OC(N)=O)C(O)C(Oc2ccc3c(O)c(NC(=O)c4ccc(O)c(CC=C(C)C)c4)c(=O)oc3c2C)OC1(C)C",
    "Target or system": "188146-221-R-J1-PDC complex spheroid viability",
    "Units of measure": "%",
    "viability, T/C": 37.6
  },
  {
    "Compound": "CCc1cc2c(N3CCc4c(cc(Cn5ccnc5)cc4-c4cn(C)nc4C(F)(F)F)C3=O)ccnc2c(OC)n1 + Cc1cccc(N(C)C(=O)C2C(O)CCN2c2nc(C)cc(C(F)(F)F)c2C#N)c1",
    "Target or system": "188146-221-R-J1-PDC complex spheroid viability",
    "Units of measure": "%",
    "viability, T/C": 66.5
  },
  {
    "Compound": "CNCc1ccc(-c2[nH]c3cc(F)cc4c3c2CCNC4=O)cc1 + Cc1cccc(N(C)C(=O)C2C(O)CCN2c2nc(C)cc(C(F)(F)F)c2C#N)c1",
    "Target or system": "188146-221-R-J1-PDC complex spheroid viability",
    "Units of measure": "%",
    "viability, T/C": 106
  },
  {
    "Compound": "O=c1[nH]cc(F)c(=O)[nH]1 + Cc1cccc(N(C)C(=O)C2C(O)CCN2c2nc(C)cc(C(F)(F)F)c2C#N)c1",
    "Target or system": "188146-221-R-J1-PDC complex spheroid viability",
    "Units of measure": "%",
    "viability, T/C": 43.5
  }
]

Below is a list of compounds. For each, state its recorded viability, T/C.
1. CNCc1ccc(-c2[nH]c3cc(F)cc4c3c2CCNC4=O)cc1 + COC1C(OC(N)=O)C(O)C(Oc2ccc3c(O)c(NC(=O)c4ccc(O)c(CC=C(C)C)c4)c(=O)oc3c2C)OC1(C)C
2. CC(C)n1c(=O)n(C)c2cnc3cc(F)c(-c4ccc(OCCCN5CCCCC5)nc4)cc3c21 + Cc1cccc(N(C)C(=O)C2C(O)CCN2c2nc(C)cc(C(F)(F)F)c2C#N)c1

Ans.
1: 112; 2: 85.4
